target: sSortilin (Homo sapiens, UniProt Q99523); construct: Soluble Sortilin (sSortilin); His6 (C); made in house; host or cells: CHO-K1; assay: Surface plasmon resonance affinity of NGFpro and icosapeptides for immobilized sSortilin; type: binding; conditions: BIAcore 3000, 20° C., read-out: dissociation constant (Kd)
Sequence (Q99523 78-755 limits assumed): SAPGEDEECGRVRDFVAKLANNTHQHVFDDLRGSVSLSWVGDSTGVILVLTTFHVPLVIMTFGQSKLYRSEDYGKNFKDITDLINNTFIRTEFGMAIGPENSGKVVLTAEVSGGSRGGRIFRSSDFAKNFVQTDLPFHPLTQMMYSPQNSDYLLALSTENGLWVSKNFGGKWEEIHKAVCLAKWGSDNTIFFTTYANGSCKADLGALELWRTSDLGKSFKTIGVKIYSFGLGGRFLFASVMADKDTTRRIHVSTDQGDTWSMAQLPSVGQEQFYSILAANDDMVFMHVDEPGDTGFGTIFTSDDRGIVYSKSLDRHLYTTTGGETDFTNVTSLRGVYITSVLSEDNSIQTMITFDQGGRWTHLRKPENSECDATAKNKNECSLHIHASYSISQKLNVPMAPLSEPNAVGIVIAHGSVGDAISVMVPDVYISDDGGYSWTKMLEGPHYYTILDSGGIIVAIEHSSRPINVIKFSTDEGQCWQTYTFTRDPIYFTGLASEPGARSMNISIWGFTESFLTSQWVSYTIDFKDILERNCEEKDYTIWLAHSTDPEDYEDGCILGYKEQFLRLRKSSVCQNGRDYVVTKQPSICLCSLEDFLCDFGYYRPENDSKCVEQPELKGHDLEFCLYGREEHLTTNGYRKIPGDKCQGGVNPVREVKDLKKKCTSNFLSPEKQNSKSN
Where no end group is shown, it is not given here.
observable: Kd

For reference, reported Kd for ITVDPRLFKKRRLRSPRVLF-NH2 [peptide-4] stands at ~5 µM
